Assay: Cmax in CD1 mouse at 1 mg/kg, po administered as bolus dose
Assay type: ADME, organism-based
Parameters: dose 1 mg/kg, route oral
Details: in vivo
observable: Cmax (µM)
Numbers only, in µM.

CCN1CC(C(=O)NC(C)CCc2ccc(Cl)c(Cl)c2)=C(O)C1=O (stereo in doubt; 7c)	15
Cn1ccc(C(=O)NCCCc2ccc(Cl)c(Cl)c2)c(O)c1=O	2

Ask: Query: Cmax; subject: `CN1CC(C(=O)NCCCc2ccc(Cl)c(Cl)c2)=C(O)C1=O`
Reply: 8.2

###

Kindly supply the reported clearance values for the records listed here.
Assay: Clearance in CD1 mouse at 1 mg/kg, iv administered as bolus dose
Assay type: ADME, organism-based
Details: in vivo
Answers are plain numbers, in mL/min/kg.

CN1CC(C(=O)NCCCc2ccc(Cl)c(Cl)c2)=C(O)C1=O	2.1

With those in mind, consider the next compound.
Ask: Query: clearance; subject: `Cn1ccc(C(=O)NCCCc2ccc(Cl)c(Cl)c2)c(O)c1=O`
Reply: 2.5
